biological target: recombinant kappa opiod receptor expressed in HEK 293 cells (Homo sapiens); construct: purchased Receptor Biology Inc; host or cells: HEK 293; experiment: biochemical; format: binding
Sequence (P41145 whole entry): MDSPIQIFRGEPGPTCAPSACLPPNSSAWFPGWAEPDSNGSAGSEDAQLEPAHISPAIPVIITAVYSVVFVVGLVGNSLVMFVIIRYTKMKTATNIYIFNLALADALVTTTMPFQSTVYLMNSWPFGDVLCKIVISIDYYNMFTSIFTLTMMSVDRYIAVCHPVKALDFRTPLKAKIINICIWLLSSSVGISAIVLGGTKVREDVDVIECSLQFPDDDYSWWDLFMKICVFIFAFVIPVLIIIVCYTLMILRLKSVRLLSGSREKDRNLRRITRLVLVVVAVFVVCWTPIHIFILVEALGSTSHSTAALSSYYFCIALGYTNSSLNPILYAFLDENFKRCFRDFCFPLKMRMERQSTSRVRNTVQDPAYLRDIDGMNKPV
endpoint: Ki (nM)
Value expressed in nM; do not type the unit.

Entry under test: Oc1ccc2c3c1O[C@H]1c4oc5ccccc5c4C[C@@]4(O)[C@@H](C2)N(CC2CC2)CC[C@]314 [Naltriben, reference compound] . Its Ki was 2.4

----------
target: recombinant mu-opioid receptor expressed in CHO-K1 cells (Homo sapiens, UniProt P35372); construct: purchased Receptor Biology Inc; host or cells: CHO-K1; assay: biochemical; format: binding
Sequence (P35372 whole entry): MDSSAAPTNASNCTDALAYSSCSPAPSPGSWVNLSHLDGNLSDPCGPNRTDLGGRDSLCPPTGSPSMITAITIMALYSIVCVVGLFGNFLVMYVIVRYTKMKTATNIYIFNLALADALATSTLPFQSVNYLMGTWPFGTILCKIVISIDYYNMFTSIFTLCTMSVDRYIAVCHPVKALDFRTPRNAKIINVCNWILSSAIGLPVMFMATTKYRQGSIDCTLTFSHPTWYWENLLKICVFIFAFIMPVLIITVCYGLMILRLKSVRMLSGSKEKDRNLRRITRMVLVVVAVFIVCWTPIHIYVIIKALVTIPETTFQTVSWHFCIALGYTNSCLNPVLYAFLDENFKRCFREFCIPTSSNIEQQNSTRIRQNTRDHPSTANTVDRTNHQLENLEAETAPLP
endpoint: pKi
For clarity, pKi is expressed as the negative log10 of concentration in mol/L.

The molecule listed as CN1CC[C@]23c4c5ccc(O)c4O[C@H]2[C@@H](O)CC[C@H]3[C@H]1C5 [Dihydromorphine, reference compound] shows pKi equal to 9.41
